biological target: PfKASIII (Plasmodium falciparum); assay: PfKASIII inhibitor screen; assay type: biochemical
Exercise: for every item that follows, state its recorded IC50.

Entry `C/C=C/CCCCCCCC(=O)NS(=O)(=O)c1ccc(N)cc1` ; IC50 = > 1000 µM

Entry `COc1ncnc(NS(=O)(=O)c2ccc(N)cc2)c1OC` ; IC50 = > 1000 µM

---

tested on: J774 murine monocyte-like macrophage line (subclone G8); assay: Toxicity assay; format: cell-based
metric name: toxicity against the mammalian cell line (in words)

# example entries with known answers
CC(C)c1ccc(S(=O)(=O)c2ccc(C(C)C)cc2)cc1 | significant toxicity
Cc1ccc(S/C=C/S(=O)(=O)Cc2ccccc2)cc1 | significant toxicity
CCCCS(=O)(=O)CCOC(=O)c1ccc([N+](=O)[O-])cc1 | significant toxicity
NC1CCC(S(=O)(=O)c2cc(O)c3ccccc3c2O)CC1 (stereo not shown) | little toxicity
c1ccc(SSc2ccccc2)cc1 | little toxicity
O=S(=O)(Nc1cccc(Cl)c1)c1ccccc1 | significant toxicity

We next turn to a different compound, shown below.
The recorded toxicity against the mammalian cell line (in words) for entry `Cc1ccc(S(=O)(=O)c2cc(O)c3ccccc3c2O)cc1` equals little toxicity
